system: Candida albicans; conditions: 32 ug/mL
Description: Antifungal activity against Candida albicans ATCC 90028 (CO-ADD:FG_001); MIC in YNB media using NBS plates, by OD630
Results with a measured potency or affinity are listed apart.
Collected Inhibition values appear next to each entry.
measurementName: Inhibition (%)

1. COc1ccc(-c2cc(-c3cc4ccc(OC)cc4nc3Cl)cc(=O)[nH]2)cc1 ... -0.61
2. C#CCNc1ncccn1 ... 2.79
3. Cc1ccc(/C=C(\C#N)C(=O)c2ccccc2)cc1 ... 1.76
4. C#CCN(C)c1cc(Cl)nc(N)n1 ... 11.4
5. Cc1ccc(C=C2N=C(c3ccccc3)OC2=O)cc1 ... -0.14
6. N#CC1(Br)C(=NBr)Oc2c(ccc3ccccc23)C1c1cccc([N+](=O)[O-])c1 (stereo not given) ... 10.2
7. COc1ccc(C2c3ccc4ccccc4c3Oc3nc4c(c(N)c32)CCCC4)c(OC)c1 (stereo not given) ... 0.01
8. COC1=C(C#N)C(c2ccccc2)C(C=O)=C(Cl)N1 (stereo not given) ... 4.19
9. O=C(Cc1c[nH]c2ccccc12)NN=Cc1ccccc1 ... -0.87
10. C#CCN(C)c1nc(N(C)CC#C)c(C#N)cc1C#N ... 2.14
11. Cl.Nc1c2c(nc3c1C(c1ccccc1)c1c(ccc4ccccc14)O3)CCCC2 (stereo not given) ... 1.33
12. Cl.OCC1CCN(Cc2ccccc2)CC1 ... 1.47
13. CC1=NC(=Cc2ccccc2)C(=O)S1 ... 0.37
14. COc1ccc(C2C(C#N)=C(N)Oc3[nH]nc(C)c32)cc1 (stereo not given) ... 1.54
15. N#Cc1cc(C#N)c(NCCCC2CCN(Cc3ccccc3)CC2)nc1N ... 0.89
16. N#Cc1c(-c2ccccc2)c2ccc3ccccc3c2oc1=O ... 3.25
17. CC#CCN(C)Cc1cc2cc(OCc3ccccc3)ccc2n1C.O=C(O)C(=O)O ... 3.08
18. O=C(N/N=C/c1cccc(Cl)c1)c1cc2ccccc2[nH]1 ... -0.35
19. C#CC[n+]1ccccc1N.[Br-] ... 1.82
20. CN(C)c1nc(N)c(C#N)c(-c2ccccc2)c1C#N ... 0.74
21. Cc1ccc(C(O)SNNc2nc(C)nc3c2c(C)nn3-c2ccccc2)cc1 (stereo not given) ... -0.04
22. COc1ccc(-c2cc(-c3cc4ccccc4nc3Cl)cc(=O)[nH]2)cc1 ... -0.7
23. CSC1=NC2(CC2c2ccccc2)C(=O)N1 (stereo not given) ... -0.24
24. N#CC1=C(Cl)Oc2c(ccc3ccccc23)C1c1cccc([N+](=O)[O-])c1 (stereo not given) ... 6.77
25. COc1ccccc1C1c2c(ccc3ccccc23)OC(=N)C1(Br)C#N (stereo not given) ... 5.01

====

tested on: Cryptococcus neoformans; conditions: Concentration 32 ug.mL-1; ASSAY_TEST Inhibition of Fungal Growth; detection method Resazurin; Absorption (OD600-OD570); plate type 384well; NBS; CORNING #3640
Description: Antifungal activity against Cryptococcus neoformans H99 ATCC 208821 (CO-ADD:FG_002); MIC in YNB media using NBS plates, by Resazurin OD(600-570)
Measured potencies and affinities stand elsewhere.
Collected Inhibition values appear next to each entry.
measurementName: Inhibition (%)

1) CC(=O)O[C@H]1CC[C@H](NC(=O)c2ccccc2)CC1 ... -39.27
2) COc1ccc(-c2cc(-c3cc4c(C)cc(C)cc4nc3Cl)cc(=O)[nH]2)cc1 ... 0.64
3) CC(C)(C)OC(=O)N[C@H]1CC[C@H](O)CC1 ... -36.58
4) CCOC(=O)c1cc2cc(OC)ccc2n1C ... -3.08
5) Cc1cnc(NC(=O)OC(C)(C)C)c(Br)c1 ... -60.78
6) O=c1oc2cc(O)ccc2cc1-c1ccccc1 ... -4.62
7) N#CC1=C(N)Oc2c(ccc3ccccc23)C1c1ccc(O)cc1 (centres undefined) ... -59.36
8) C#CCNC(=O)c1cc2cc(OCCCC3CCN(Cc4ccccc4)CC3)ccc2[nH]1 ... -106.43
9) COc1ccc(C2c3ccc4ccccc4c3OC(=NBr)C2(Br)C#N)cc1 (centres undefined) ... -24.77
10) CC(=O)NC(=Cc1ccccc1)C(=O)O ... -0.91
11) NC(=O)c1cc2cc(OCc3ccccc3)ccc2[nH]1 ... -61.34
12) N#CC1=C(N)NC(=O)CC1c1ccccc1 (centres undefined) ... -51.84
13) C#CCNc1nc(NCCCCC2CCN(Cc3ccccc3)CC2)c(C#N)cc1C#N ... -10.91
14) Cn1cc(C(=O)NN)c2ccccc21 ... 7.89
15) C#CCNc1nc(NC2CCN(Cc3ccccc3)CC2)c(C#N)cc1C#N.Cl ... -92.81
16) N#Cc1c(N)nc2[nH]nc(N)c2c1-c1ccccc1 ... -62.75
17) C=C1CN(C)c2c(C#N)cc(C#N)c(=N)n21 ... -52.46
18) COc1ccc(C2C(C#N)=C(N)Oc3[nH]nc(C)c32)cc1 (centres undefined) ... -3.79
19) Cl.Nc1c2c(nc3c1C(c1ccccc1)c1c(ccc4ccccc14)O3)CCCC2 (centres undefined) ... -0.7
20) N#Cc1c(Cl)nc(NC2CCN(Cc3ccccc3)CC2)c(C#N)c1-c1ccccc1 ... -53.1
21) Cn1ccnc1C1C2=C(CC(C)(C)CC2=O)Oc2nc3c(c(N)c21)CCCC3 (centres undefined) ... -60.42
22) N#Cc1c(N)nc(NCCCCC2CCN(Cc3ccccc3)CC2)c(C#N)c1-c1ccccc1 ... 0.12
23) CCOC(=O)C1=C(C)OC(N)=C(C#N)C1c1ccncc1 (centres undefined) ... -58.29
24) CCOC(=O)/C(C#N)=C\c1ccc(Cl)cc1 ... -5.03

====

test system: Klebsiella pneumoniae; settings: Concentration 32 ug.mL-1; ASSAY_TEST Inhibition of Bacterial Growth; detection method Absorption (OD600); MEDIA CAMHB; plate type 384well; NBS; CORNING #3640; time 18 hr
Description: Antibacterial activity against Klebsiella pneumoniae MDR ATCC 70063 (CO-ADD:GN_003); MIC in CAMBH media using NBS plates, by OD(600)
Results with a measured potency or affinity are listed apart.
measurementName: Inhibition (%)

1) Cc1nc2c3cnn(-c4ccccc4)c3ncn2n1 ... 15.65
2) C#CCN(C)Cc1cc2cc(OC)ccc2n1C ... 12.36
3) COc1cccc(C2c3c(nc4c(c3N)CCCC4)Oc3ccc4ccccc4c32)c1 (stereo unspecified) ... 7.83
4) C#CCN(C)c1ncc(C#N)c(N)n1 ... 9.44
5) O=C1OC(c2ccccc2)=NC1=Cc1ccc([N+](=O)[O-])cc1 ... 9.13
6) C#CCNc1nc(NCCCCC2CCN(Cc3ccccc3)CC2)c(C#N)cc1C#N ... -10.59

====

tested on: Klebsiella pneumoniae; settings: Concentration 32 ug.mL-1; ASSAY_TEST Inhibition of Bacterial Growth; detection method Absorption (OD600); MEDIA CAMHB; plate type 384well; NBS; CORNING #3640; time 18 hr
Measured potencies and affinities stand elsewhere.
Collected Inhibition values appear next to each entry.
measurementName: Inhibition (%)

1) Cn1c(CNNC(=O)Cc2cccc3ccccc23)cc2ccccc21 ... 2.56
2) O=C(N/N=C/c1ccc([N+](=O)[O-])cc1)c1cc2ccccc2[nH]1 ... 7.41
3) C#CCN(C)Cc1cc2cc(OCCC3CCN(Cc4ccccc4)CC3)ccc2n1C.Cl ... 16.32
4) C1CNCCNCCNCCNC1 ... 5.58
5) Cl.OCC1CCN(Cc2ccccc2)CC1 ... 15.06
6) Cc1ccc(C(O)SNNc2ncnc3c2cnn3-c2ccccc2)cc1 (centres undefined) ... 7.03
7) COc1ccc2cc(C3C(C(C)=O)=C(C)Oc4nc5c(c(N)c43)CCC5)c(Cl)nc2c1 (centres undefined) ... 0.03
8) O=c1oc2cc(O)ccc2cc1-c1ccccc1 ... 3.33
9) Cl.Nc1c2c(nc3c1C(c1c(Cl)cccc1Cl)c1ccc4ccccc4c1O3)CCCC2 (centres undefined) ... 3.98
10) COc1ccc(C2c3ccc4ccccc4c3OC(=NBr)C2(Br)C#N)cc1 (centres undefined) ... 6.43
11) O=C(N/N=C/c1ccc(Cl)cc1)c1cc2ccccc2[nH]1 ... -19.43
12) Cl.ClCCCC1CCNCC1 ... 10.49
13) NNC(=O)c1cc2ccccc2n1Cc1ccccc1 ... -14.14
14) C#CCN(C)c1cc(Cl)nc(N)n1 ... 16.87
15) Cc1ccc(C(O)SNNc2ncnc3c2c(C)nn3-c2ccccc2)cc1 (centres undefined) ... -18.74
16) Cc1ccc(CNNC(=O)c2c[nH]c3ccccc23)cc1 ... 5.46
17) CCOC(=O)c1cc2cc(OCc3ccccc3)ccc2[nH]1 ... 6.66
18) Cn1cc(C=O)c2ccccc21 ... 2.25
19) CCC(Cc1ccccc1)NNC(=O)c1cc2ccccc2[nH]1 (centres undefined) ... -8.95
20) CCOC(=O)C1=C(C)OC(N)=C(C#N)C1c1cccs1 (centres undefined) ... 7.75
21) N#Cc1cc(C#N)c(Cl)nc1N ... -13.03
22) COc1ccc(-c2cc(-c3cc4ccccc4nc3Cl)cc(=O)[nH]2)cc1 ... 10.14
23) N#Cc1ccc(Br)cc1N ... 26.43
24) Cc1[nH]nc2c1C(c1cccc([N+](=O)[O-])c1)C(C#N)=C(N)O2 (centres undefined) ... 18.43
25) ClCCC1CCN(Cc2ccccc2)CC1 ... 14.5
26) COc1ccc(C2c3c(nc4c(c3N)CCCC4)Oc3ccc4ccccc4c32)cc1 (centres undefined) ... 8.01
27) CCOC(=O)/C(C#N)=C\c1ccc(C)cc1 ... 18.72
28) Cc1ccc(C=C2N=C(c3ccccc3)OC2=O)cc1 ... 9.43
29) COc1cccc(C2C(C#N)=C(N)Oc3c2ccc2ccccc32)c1 (centres undefined) ... 8.5
30) N#CC1(Br)C(=NBr)Oc2c(ccc3ccccc23)C1c1ccc([N+](=O)[O-])cc1 (centres undefined) ... 12.27
31) COc1nc2nc3c(c(N)c2cc1C#N)CCCC3 ... 13.26
32) CN(Cc1cn(Cc2ccccc2)nn1)Cc1cc2cc(OCCCC3CCN(Cc4ccccc4)CC3)ccc2n1C ... 4.39
33) N#Cc1cc(Br)cc(Br)c1N ... -0.57
34) O[C@H]1CC[C@H](NCc2ccccc2)CC1 ... 16.79
35) COc1nc2ccc(C)cc2cc1C=O ... -5.34
36) NC(=O)N/N=C/c1c[nH]c2ccccc12 ... 23.24
37) C#CCNc1[nH]c2ccc(O)cc2c1C#N ... 14.34
38) CCOC(=O)C1=C(C)NC(N)=C(C#N)C1c1ccc([N+](=O)[O-])cc1 (centres undefined) ... 14.21
39) CCCC(C)NNC(=O)Cc1c[nH]c2ccccc12 (centres undefined) ... 6.53
40) COc1ccc(C2c3ccc4ccccc4c3Oc3nc4c(c(N)c32)CCCC4)c(OC)c1 (centres undefined) ... 4.09
41) CCOC(=O)C1=C(C)Oc2nc3c(c(N)c2C1c1ccccc1OC)CCC3 (centres undefined) ... 16.69
42) Cc1ccc(C2c3c(nc4c(c3N)CCCC4)Oc3ccc4ccccc4c32)cc1 (centres undefined) ... 2.87
43) Cc1ccc2nc(Cl)c(/C=N/C(C)(C)C)cc2c1 ... 7.37
44) Cn1ccnc1C1C(C#N)=C(N)Oc2c1ccc1cccnc21 (centres undefined) ... 9.74
45) C#CCNc1nc(NCC#C)c(C#N)cc1C#N ... -4.98
46) N#Cc1c(N)nc(NCCC2CCN(Cc3ccccc3)CC2)c(C#N)c1-c1ccccc1 ... 5.9
47) C=CCNCc1cc2cc(OCCCC3CCN(Cc4ccccc4)CC3)ccc2[nH]1.O.O=C(O)C(=O)O.O=C(O)C(=O)O ... -6.45
48) Cc1ccc(C2c3c(Cl)nnnc3Oc3ccc4ccccc4c32)cc1 (centres undefined) ... 9.62
49) CC(C)(C)OC(=O)Nc1ccc(Br)cn1 ... 23.74
